Assign EC50 to each entry below.
Molecular target: human VR1 (Homo sapiens, UniProt Q8NER1)
Construct: expressed in transfected cells; host or cells: A431 cells
Sequence (Q8NER1 whole entry): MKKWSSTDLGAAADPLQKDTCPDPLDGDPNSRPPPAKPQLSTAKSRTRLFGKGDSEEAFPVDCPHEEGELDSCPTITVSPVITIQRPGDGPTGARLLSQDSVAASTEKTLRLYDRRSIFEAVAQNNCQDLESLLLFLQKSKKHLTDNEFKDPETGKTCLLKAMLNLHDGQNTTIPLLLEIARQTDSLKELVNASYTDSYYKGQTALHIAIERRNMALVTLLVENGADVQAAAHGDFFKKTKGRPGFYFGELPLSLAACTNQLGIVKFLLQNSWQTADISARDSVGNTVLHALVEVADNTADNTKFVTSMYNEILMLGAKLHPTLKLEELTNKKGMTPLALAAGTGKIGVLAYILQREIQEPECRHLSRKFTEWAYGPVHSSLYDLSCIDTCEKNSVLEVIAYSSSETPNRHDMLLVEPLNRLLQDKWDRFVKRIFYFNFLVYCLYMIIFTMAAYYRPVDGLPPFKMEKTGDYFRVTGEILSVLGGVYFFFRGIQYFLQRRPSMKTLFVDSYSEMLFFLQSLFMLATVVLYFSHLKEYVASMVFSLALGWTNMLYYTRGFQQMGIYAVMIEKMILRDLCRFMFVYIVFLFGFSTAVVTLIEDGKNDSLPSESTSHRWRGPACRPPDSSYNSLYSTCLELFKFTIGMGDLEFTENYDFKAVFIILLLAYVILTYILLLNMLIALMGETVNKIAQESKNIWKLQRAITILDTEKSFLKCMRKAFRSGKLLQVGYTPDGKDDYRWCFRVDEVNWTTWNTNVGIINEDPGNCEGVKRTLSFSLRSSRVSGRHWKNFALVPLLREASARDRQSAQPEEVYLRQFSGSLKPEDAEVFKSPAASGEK
Assay: Human VR1 functional assay (FLIPR, intracellular Ca++)
Type: cell-based
Settings: A431 cells expressing human VR1, Ca++-sensitive dye, dose-response
Param answer (str): number followed by unit.

So what does the record say about EC50 for O=C(C1CCN(c2cccc(-c3ccccc3)c2)CC1)N1CCCCC1 [Compound 33] ?
4100 nM

So what does the record say about EC50 for O=C(C1CCN(c2cc(F)cc(F)c2)CC1)N1CCC(O)CC1 [Compound 23] ?
2800 nM

So what does the record say about EC50 for Cc1cccc(N2CCC(C(=O)N3CCSC3)CC2)c1C [Compound 16] ?
1890 nM

So what does the record say about EC50 for O=C(C1CCN(c2cccc3ccccc23)CC1)N1CCSC1 [Compound 24] ?
3100 nM

So what does the record say about EC50 for Cc1ccc(N2CCC(C(=O)N3CCC(O)CC3)CC2)cc1F [Compound 22] ?
2300 nM

So what does the record say about EC50 for Cc1cccc(N2CCC(C(=O)N3CCOCC3)CC2)c1 [Compound 32] ?
4100 nM

So what does the record say about EC50 for Cc1ccc(N2CCC(C(=O)N3CCSCC3)CC2)cc1F [Compound 4] ?
270 nM

So what does the record say about EC50 for Cc1ccc(N2CCC(C(=O)N3CCCCC3)CC2)cc1F [Compound 10] ?
1300 nM

So what does the record say about EC50 for O=C(C1CCN(c2cc(F)cc(F)c2)CC1)N1CCCCC1 [Compound 20] ?
2050 nM

So what does the record say about EC50 for COc1cccc(N2CCC(C(=O)N3CCSCC3)CC2)c1 [Compound 34] ?
4370 nM

So what does the record say about EC50 for Cc1ccc(N2CCC(C(=O)N3CCOCC3)CC2)cc1C [Compound 12] ?
1500 nM

So what does the record say about EC50 for O=C(C1CCN(c2cccc(-c3ccccc3)c2)CC1)N1CCSCC1 [Compound 21] ?
2200 nM

So what does the record say about EC50 for O=C(C1CCN(c2cc(F)cc(F)c2)CC1)N1CCOCC1 [Compound 15] ?
1850 nM

So what does the record say about EC50 for Cc1ccccc1N1CCC(C(=O)N2CCCCCC2)CC1 [Compound 25] ?
3200 nM

So what does the record say about EC50 for O=C(C1CCN(c2cccc3ccccc23)CC1)N1CCCCC1 [Compound 17] ?
1910 nM

So what does the record say about EC50 for CC(=O)N1CCN(C(=O)C2CCN(c3cccc(-c4ccccc4)c3)CC2)CC1 [Compound 30] ?
3800 nM

So what does the record say about EC50 for Cc1cccc(N2CCC(C(=O)N3CCSCC3)CC2)c1C [Compound 7] ?
760 nM

So what does the record say about EC50 for Cc1cccc(N2CCC(C(=O)N3CCCCC3)CC2)c1 [Compound 29] ?
3800 nM

So what does the record say about EC50 for Cc1ccc(N2CCC(C(=O)N3CCC(O)CC3)CC2)cc1C [Compound 8] ?
910 nM

So what does the record say about EC50 for Cc1ccccc1N1CCC(C(=O)N2CCCCC2)CC1 [Compound 26] ?
3260 nM

So what does the record say about EC50 for Cc1ccccc1N1CCC(C(=O)N2CCC(O)CC2)CC1 [Compound 11] ?
1420 nM

So what does the record say about EC50 for O=C(C1CCN(c2cccc(C(F)(F)F)c2)CC1)N1CCCCC1 [Compound 28] ?
3700 nM

So what does the record say about EC50 for Cc1ccccc1N1CCC(C(=O)N2CCCC2)CC1 [Compound 38] ?
7840 nM

So what does the record say about EC50 for Cc1cccc(N2CCC(C(=O)N3CCC(O)C3)CC2)c1C (centres unmarked) [Compound 36] ?
5200 nM

So what does the record say about EC50 for Cc1cccc(N2CCC(C(=O)N3C(C)CCCC3C)CC2)c1C (centres unmarked) [Compound 35] ?
4600 nM

So what does the record say about EC50 for Cc1cccc(N2CCC(C(=O)N3CCCCC3)CC2)c1C [Compound 14] ?
1640 nM

So what does the record say about EC50 for Cc1ccccc1N1CCC(C(=O)N2CCSCC2)CC1 [Compound 1] ?
230 nM

So what does the record say about EC50 for Cc1cccc(N2CCC(C(=O)N3CCC(O)CC3)CC2)c1C [Compound 2] ?
240 nM

So what does the record say about EC50 for O=C(C1CCN(c2cc(F)cc(F)c2)CC1)N1CCSCC1 [Compound 18] ?
1970 nM

So what does the record say about EC50 for Cc1ccccc1N1CCC(C(=O)N2CCOCC2)CC1 [Compound 13] ?
1590 nM

So what does the record say about EC50 for O=C(C1CCN(c2cccc(C(F)(F)F)c2)CC1)N1CCOCC1 [Compound 5] ?
330 nM

So what does the record say about EC50 for CC(=O)N1CCN(C(=O)C2CCN(c3cccc(C)c3C)CC2)CC1 [Compound 31] ?
4000 nM

So what does the record say about EC50 for O=C(C1CCN(c2cccc(-c3ccccc3)c2)CC1)N1CCOCC1 [Compound 3] ?
270 nM

So what does the record say about EC50 for Cc1ccc(N2CCC(C(=O)N3CCOCC3)CC2)cc1F [Compound 19] ?
2000 nM

So what does the record say about EC50 for Cc1ccc(N2CCC(C(=O)N3CCSCC3)CC2)cc1C [Compound 6] ?
340 nM

So what does the record say about EC50 for Cc1ccc(N2CCC(C(=O)N3CCCCC3)CC2)cc1C [Compound 9] ?
1040 nM

So what does the record say about EC50 for Cc1ccccc1N1CCC(C(=O)N2CCSC2)CC1 [Compound 37] ?
5400 nM

So what does the record say about EC50 for COc1cccc(N2CCC(C(=O)N3CCOCC3)CC2)c1 [Compound 27] ?
3530 nM
